Examples of compounds with documented pIC50 follow.
Target: EGFR (Homo sapiens, UniProt P00533)
Sequence (P00533 25-1210): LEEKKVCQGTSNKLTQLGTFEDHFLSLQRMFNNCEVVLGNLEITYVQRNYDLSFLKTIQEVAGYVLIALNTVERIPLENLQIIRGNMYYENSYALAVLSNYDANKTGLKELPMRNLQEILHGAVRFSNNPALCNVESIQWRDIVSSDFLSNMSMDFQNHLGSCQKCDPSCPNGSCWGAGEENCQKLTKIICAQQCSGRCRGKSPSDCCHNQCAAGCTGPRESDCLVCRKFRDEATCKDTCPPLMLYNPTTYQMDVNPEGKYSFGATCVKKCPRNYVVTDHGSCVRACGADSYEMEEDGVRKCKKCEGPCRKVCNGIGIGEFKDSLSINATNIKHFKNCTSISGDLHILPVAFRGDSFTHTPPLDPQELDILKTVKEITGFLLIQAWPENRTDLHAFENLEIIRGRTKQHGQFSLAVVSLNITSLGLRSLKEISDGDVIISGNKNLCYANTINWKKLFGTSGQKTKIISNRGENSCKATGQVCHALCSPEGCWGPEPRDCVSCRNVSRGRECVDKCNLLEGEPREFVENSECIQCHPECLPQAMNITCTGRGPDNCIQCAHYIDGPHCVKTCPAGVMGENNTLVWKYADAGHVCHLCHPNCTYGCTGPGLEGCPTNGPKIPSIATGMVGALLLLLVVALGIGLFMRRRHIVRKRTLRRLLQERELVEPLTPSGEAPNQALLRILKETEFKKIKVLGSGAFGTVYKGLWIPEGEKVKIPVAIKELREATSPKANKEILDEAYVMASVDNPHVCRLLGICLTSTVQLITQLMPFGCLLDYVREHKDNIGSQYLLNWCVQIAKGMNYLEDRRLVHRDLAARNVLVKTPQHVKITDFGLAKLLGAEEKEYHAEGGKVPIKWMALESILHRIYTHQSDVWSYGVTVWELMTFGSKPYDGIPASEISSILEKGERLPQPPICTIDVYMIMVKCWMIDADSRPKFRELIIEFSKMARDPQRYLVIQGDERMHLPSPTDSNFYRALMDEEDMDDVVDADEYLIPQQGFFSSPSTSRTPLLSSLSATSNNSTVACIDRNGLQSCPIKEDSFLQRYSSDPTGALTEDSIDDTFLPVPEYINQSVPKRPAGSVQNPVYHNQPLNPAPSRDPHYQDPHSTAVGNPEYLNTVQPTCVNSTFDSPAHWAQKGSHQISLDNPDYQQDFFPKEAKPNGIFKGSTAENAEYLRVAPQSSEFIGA
Assay: Inhibition of a panel of kinases, in vitro HotSpot kinase assay: EGFR
Type: biochemical
Settings: Table 13, A compounds; 1 μM ATP
pIC50: −log10 of the molar value.

Here is how some compounds turned out for pIC50.
{"columns": ["item smiles", "pIC50"],
 "data": [
  ["C[C@@H]1[C@H](NC(=O)c2ccc(C3CC3)nc2)CCCN1c1cnc(C(N)=O)c(Nc2cnn(C)c2)n1", "5.00 to 6.00"],
  ["C[C@@H]1[C@H](NC(=O)c2ccc(C3CC3)cc2F)CCCN1c1cnc(C(N)=O)c(Nc2ccc(CN3CCN(C)CC3)cc2)n1", "6.00 to 7.00"]
]}

Give its pIC50 value. Item: "CN1CCC(n2cc(Nc3nc(N4CCC[C@@H](n5ccc6cc(C7CC7)ccc6c5=O)C4)cnc3C(N)=O)cn2)CC1"
5.00 to 6.00
